Test: yeast growth modulation, basal conditions, primary screen, YJM789 clinical isolate, OD600, 24 h (AID 1089);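 further: growth of clinical yeast isolate S. cerevisiae YJM 789 seeded 1000 cells per well; test concentration not given here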
Details: S. cerevisiae YJM789 growth, higher = more signal, called active from +8 up or from −8 down
Please provide measured z-score for the entries that follow.
Answer with the value's number alone.

// returns reported z-score for input CC(C)c1ccc(NN2C(C(O)c3ccccc3)C=CC3C(=O)N(c4ccccc4)C(=O)C32)cc1 (configuration not stated)
1.54

Now give it for `O=C1OC[C@@H](c2ccccc2)n2cc(/C=C/c3ccccc3)cc21` too.
-0.154

Now give it for `[N-]=[N+]=NCc1ccccc1[C@H]1OC(c2ccc(OCCCO)cc2)=N[C@@]1(CCS(=O)(=O)c1ccccc1)C(=O)O` too.
-0.791

Now give it for `COc1ccc(-c2cc3c(c(CCc4ccccc4)n2)[Si](C(C)C)(C(C)C)O[C@H]3c2ccccc2)cn1` too.
0.646

Now give it for `C=CCNC(=O)[C@H]1[C@@H]2C(=O)O[C@@H](c3ccccc3)[C@@H](c3ccccc3)N2[C@@H](c2ccc(OCCO)cc2)[C@]12C(=O)N(C(=O)OCCOC)c1ccc(C#CCC(C(=O)OC)C(=O)OC)cc12` too.
2.06

Now give it for `COC(=O)[C@@]1(Cc2ccc(F)cc2)[C@H]2c3cc(C(=O)N4CCCC4)n(CCSCCO)c3C[C@H]2CN1C(=O)c1ccccc1` too.
0.856

Now give it for `C=CC[C@]1(C(N)=O)N=C(c2ccc(OCCCO)cc2)O[C@H]1c1ccccc1N=[N+]=[N-]` too.
0.344

These entries and their values trace back to PubChem BioAssay.
